- Tested On: Histone deacetylase 2 (Homo sapiens)
- Assay Remarks: Inhibition of HDAC2 in human HeLa nuclear extract at 0.1 to 1 uM using HDAC substrate incubated for 30 mins by microplate reader assay
- Format: cell-free
Calls of active or inactive are those of the source. The calls are words filed in the database; no cut-off is given here.
Quantity Measured: inhibition

> print(dat)
                                   molecule  quantity.measured  recorded.value
1  COC(=O)CCCN1C=C(C(=O)O)C(c2ccc(Cl)cc2Cl)NS1(=O)=O (centres undefined)         inhibition        inactive
2  CCOC(=O)C1=CNS(=O)(=O)N(Cc2ccc(C(=O)O)cc2)C1c1ccc(Cl)cc1Cl (centres undefined)         inhibition        inactive
3  CCOC(=O)C1=CN(Cc2ccc(C(=O)NO)cc2)S(=O)(=O)NC1c1ccc(Cl)cc1Cl (centres undefined)         inhibition        inactive
4  CCOC(=O)C1=CN(CCCC(=O)NO)S(=O)(=O)NC1c1ccc(Cl)cc1Cl (centres undefined)         inhibition        inactive

----------
- Tested On: Histone deacetylase 3 (Homo sapiens) (UniProt O15379)
- Sequence (O15379 whole entry): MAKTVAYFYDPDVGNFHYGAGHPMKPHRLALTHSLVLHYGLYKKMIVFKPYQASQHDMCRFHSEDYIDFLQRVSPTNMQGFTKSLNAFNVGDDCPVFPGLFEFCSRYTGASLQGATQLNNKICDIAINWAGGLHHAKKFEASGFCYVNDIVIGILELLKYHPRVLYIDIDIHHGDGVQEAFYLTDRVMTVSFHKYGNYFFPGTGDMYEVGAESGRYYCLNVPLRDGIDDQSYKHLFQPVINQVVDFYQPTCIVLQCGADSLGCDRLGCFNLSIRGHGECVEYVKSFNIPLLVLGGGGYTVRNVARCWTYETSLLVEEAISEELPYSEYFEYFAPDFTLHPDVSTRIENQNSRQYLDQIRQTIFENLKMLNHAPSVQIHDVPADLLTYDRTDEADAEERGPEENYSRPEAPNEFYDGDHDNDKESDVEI
- Assay Remarks: Inhibition of HDAC3 in human HeLa nuclear extract at 0.1 to 1 uM using HDAC substrate incubated for 30 mins by microplate reader assay
- Assay type: cell-free
The source made the active and inactive calls. The rule behind the calls is not given here.
Quantity Measured: inhibition

> print(dat)
                                   molecule                                 tested.on  recorded.value
1  CCOC(=O)C1=CN(Cc2ccc(C(=O)NO)cc2)S(=O)(=O)NC1c1ccc(Cl)cc1Cl (centres undefined)  Histone deacetylase 3 (Homo sapiens) (UniProt O15379)        inactive
2  COC(=O)CCCN1C=C(C(=O)O)C(c2ccc(Cl)cc2Cl)NS1(=O)=O (centres undefined)  Histone deacetylase 3 (Homo sapiens) (UniProt O15379)        inactive
3  CCOC(=O)C1=CN(CCCC(=O)NO)S(=O)(=O)NC1c1ccc(Cl)cc1Cl (centres undefined)  Histone deacetylase 3 (Homo sapiens) (UniProt O15379)        inactive
4  CCOC(=O)C1=CNS(=O)(=O)N(Cc2ccc(C(=O)O)cc2)C1c1ccc(Cl)cc1Cl (centres undefined)  Histone deacetylase 3 (Homo sapiens) (UniProt O15379)        inactive

----------
- Tested On: UniProt Q9UQL6
- Sequence (Q9UQL6 whole entry): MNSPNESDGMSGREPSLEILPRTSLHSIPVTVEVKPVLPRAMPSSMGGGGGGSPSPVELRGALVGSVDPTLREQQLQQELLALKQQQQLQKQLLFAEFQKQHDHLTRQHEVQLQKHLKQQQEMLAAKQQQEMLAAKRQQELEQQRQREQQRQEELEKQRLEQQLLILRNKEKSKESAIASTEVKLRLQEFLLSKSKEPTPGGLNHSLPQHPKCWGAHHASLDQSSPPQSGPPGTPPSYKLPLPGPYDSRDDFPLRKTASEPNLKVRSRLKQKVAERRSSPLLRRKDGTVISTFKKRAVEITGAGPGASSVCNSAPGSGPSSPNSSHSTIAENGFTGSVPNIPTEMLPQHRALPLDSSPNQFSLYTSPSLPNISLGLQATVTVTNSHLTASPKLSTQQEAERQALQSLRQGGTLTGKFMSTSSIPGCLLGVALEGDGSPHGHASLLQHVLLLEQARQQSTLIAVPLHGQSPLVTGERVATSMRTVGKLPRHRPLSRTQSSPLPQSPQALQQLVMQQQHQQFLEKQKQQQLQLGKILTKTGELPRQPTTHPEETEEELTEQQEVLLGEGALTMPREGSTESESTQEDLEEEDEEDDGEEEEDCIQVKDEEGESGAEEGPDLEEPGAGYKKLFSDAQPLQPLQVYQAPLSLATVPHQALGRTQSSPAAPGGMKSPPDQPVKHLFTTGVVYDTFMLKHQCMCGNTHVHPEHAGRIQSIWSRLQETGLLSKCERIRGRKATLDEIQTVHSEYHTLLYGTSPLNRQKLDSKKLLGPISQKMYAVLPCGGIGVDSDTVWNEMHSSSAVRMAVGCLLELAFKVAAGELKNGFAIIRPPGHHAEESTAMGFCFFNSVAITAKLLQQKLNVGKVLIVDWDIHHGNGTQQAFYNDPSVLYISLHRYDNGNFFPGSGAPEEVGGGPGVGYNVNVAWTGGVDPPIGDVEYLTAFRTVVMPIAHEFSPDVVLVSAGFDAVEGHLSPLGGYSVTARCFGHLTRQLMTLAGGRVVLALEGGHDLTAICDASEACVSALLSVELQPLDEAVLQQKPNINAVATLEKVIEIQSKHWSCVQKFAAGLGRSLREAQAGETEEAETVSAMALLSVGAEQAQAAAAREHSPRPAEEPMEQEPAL
- Assay Remarks: Inhibition of recombinant human GST-His-tagged HDAC5 at 0.1 to 1 uM using fluorogenic HDAC substrate incubated for 30 mins by microplate reader assay
The source made the active and inactive calls. No cut-off for these calls is given here.
Quantity Measured: inhibition

> print(dat)
                                   molecule  recorded.value
1  CCOC(=O)C1=CN(Cc2ccc(C(=O)NO)cc2)S(=O)(=O)NC1c1ccc(Cl)cc1Cl (centres undefined)        inactive
2  CCOC(=O)C1=CNS(=O)(=O)N(Cc2ccc(C(=O)O)cc2)C1c1ccc(Cl)cc1Cl (centres undefined)        inactive
3  CCOC(=O)C1=CN(CCCC(=O)NO)S(=O)(=O)NC1c1ccc(Cl)cc1Cl (centres undefined)        inactive
4  COC(=O)CCCN1C=C(C(=O)O)C(c2ccc(Cl)cc2Cl)NS1(=O)=O (centres undefined)        inactive

This collection of values is drawn from ChEMBL document CHEMBL4613316.
